Target Or Test System: Voltage-dependent N-type calcium channel subunit alpha-1B (Homo sapiens)
Assay: disruptors of CaV2.2 binding to Mint1 – biochemical, HTRF (AID 2073)
Protocol Conditions: HTRF protein-protein interaction, Mint1-CaV2.2; at 20 µM; active compounds read high
The campaign covered roughly 290,000 compounds. About 570 (0.2%) were called active. Not shown: some 1% with an inconclusive outcome. The full list was thinned out, with actives kept by preference.
Measured Attribute: inhibition (%)

> print(dat)
                                    compound    val
 1        c1ccc(Cc2nnc3sc(-c4cccnc4)nn23)cc1  -12.8
 2   CSc1ccccc1OCc1cc(C(=O)NCc2cnc(C)cn2)no1    5.6
 3     CCn1c(C)c(CS(=O)(=O)c2ccccc2)[nH]c1=O   73.9
 4          O=C(N/N=C/c1ccc[nH]1)c1ccc(O)cc1   38.2
 5  O=C(Cn1c(=O)sc2ccccc21)Nc1ccc(S(=O)(=O)N2CCCCC2)cc1     18
 6  O=C(N/N=C/c1ccc([N+](=O)[O-])cc1)c1cc(C2CC2)[nH]n1   -0.6
 7      Cc1ccc(N=Cc2nc(-c3ccc(C)cc3)oc2O)cc1   17.5
 8  CC1CCCN(C(=O)c2ccc3c(c2NCCO)C(=O)c2ccccc2C3=O)C1 (stereo not drawn)  -10.5
 9  CCCC(=O)N(Cc1cc(=O)[nH]c2ccccc12)c1ccc(C)cc1   14.9
10  O=C(N/N=C/c1cccc([N+](=O)[O-])c1)c1cc(-c2ccc3c(c2)OCO3)n[nH]1    3.3
11  CC1CC(C)CN(C(=O)c2ccc3c(c2NCCO)C(=O)c2ccccc2C3=O)C1 (stereo not drawn)     59
12  CN(C(=S)Nc1ccc(SC(F)F)cc1)C(c1ccccc1)c1ccccc1   -7.4
13         N=C1S/C(=C\c2ccco2)C(=O)N1c1nccs1     50
14  CN1CCN(c2c(F)cc3c(=O)c(C(=O)O)cn4c3c2OCN4C)CC1   33.2
15        CCN(CC)C(=O)C(=O)Nc1ccc(OC)c(Cl)c1    1.5
16     O=C(OCc1nnc(-c2ccc(Cl)cc2)o1)c1ccncc1    7.7
17           CNC(=S)NNC(=O)Cc1ccc(OC)c(OC)c1  -18.7
18          Cc1nn(C)c(C)c1CS(=O)(=O)c1ccccc1     -4
19                  COc1ccccc1NC(=O)Cc1cccs1   -5.5
20  CC(C)CNC(=O)CSc1nc(-c2cccs2)cc(C(F)(F)F)n1   16.7
21       Cc1ccc(-c2nc(C=Nc3ccccc3)c(O)o2)cc1   -6.2
22  CC(C)c1csc(CN2CCC(CO)(Cc3cccc(F)c3)CC2)n1   -1.1
23  CN1CCN(c2c(F)cc3c(=O)c(C(=O)O)cn4c3c2SCC4)CC1   53.3
